Molecular target: T1, human GRF receptor (human, UniProt Q02643 23-423)
T1 sequence (looked up): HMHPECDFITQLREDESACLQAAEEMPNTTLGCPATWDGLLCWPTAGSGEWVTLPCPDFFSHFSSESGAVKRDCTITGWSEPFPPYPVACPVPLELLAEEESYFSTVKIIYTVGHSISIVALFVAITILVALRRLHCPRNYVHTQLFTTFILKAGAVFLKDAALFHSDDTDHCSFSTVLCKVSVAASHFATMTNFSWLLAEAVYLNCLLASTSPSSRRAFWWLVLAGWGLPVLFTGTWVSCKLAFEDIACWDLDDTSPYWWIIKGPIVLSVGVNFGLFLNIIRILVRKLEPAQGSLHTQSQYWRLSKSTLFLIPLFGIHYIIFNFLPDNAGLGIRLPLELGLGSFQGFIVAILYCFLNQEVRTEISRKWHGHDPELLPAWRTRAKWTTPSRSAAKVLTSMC
Test: cell-based or functional assay
*1 amine or outer side, *2 acyl side, *3 side chain or, on linkers, in order; H or OH if unused. Primed or numbered codes have the meaning given here. [ ]: non-standard residue; d: D form. The star is where a group is joined. βAsp = O=C(O)[C@H](CC(=O)[*:2])N[*:1]; Met(O) = CS(=O)CC[C@H](N)C(=O)O; Hexenoyl(3E) = CC/C=C/CC(=O)*; Asu′ = not defined here
Listing of recorded EC50 (nM), alkaline phosphatase reporter gene assay by entry.
recorded-endpoint: EC50 (nM), alkaline phosphatase reporter gene assay

[
  {
    "binder": "{Hexenoyl(3E)}-YA[Asu′]AIFTNSYRKVLGQLSARKLLQDIMSRQQGESNQERGARARL-NH2 (reading uncertain) [TH9507 cyclic form at Asp^3]",
    "unit-abbrev": "nM",
    "recorded-value": 0.2
  },
  {
    "binder": "{Hexenoyl(3E)}-YADAIFTNSYRKVLGQLSARKLLQDI[Met(O)]SRQQGESNQERGARARL-NH2 [N-Hex-hGRF[1-44]Met[O]27 amide]",
    "unit-abbrev": "nM",
    "recorded-value": 0.16
  },
  {
    "binder": "{Hexenoyl(3E)}-YADAIFT[βAsp]SYRKVLGQLSARKLLQDIMSRQQGESNQERGARARL-NH2 [TH9507 beta-Asp8]",
    "unit-abbrev": "nM",
    "recorded-value": 30
  },
  {
    "binder": "{Hexenoyl(3E)}-YADAIFTNSYRKVLGQLSARKLLQDIMSRQQGESNQERGARARL-NH2 [[trans-3-hexenoyl]hGHRH (1-44) amide]",
    "unit-abbrev": "nM",
    "recorded-value": 0.06
  },
  {
    "binder": "{Hexenoyl(3E)}-YA[βAsp]AIFTNSYRKVLGQLSARKLLQDIMSRQQGESNQERGARARL-NH2 [TH9507 beta-Asp3]",
    "unit-abbrev": "nM",
    "recorded-value": 4.24
  },
  {
    "binder": "{Hexenoyl(3E)}-YADAIFTDSYRKVLGQLSARKLLQDIMSRQQGESNQERGARARL-NH2 [TH9507 Asp8]",
    "unit-abbrev": "nM",
    "recorded-value": 0.08
  }
]
